procedure.summary: Plasma concentration in Sprague-Dawley rat at 15 mg/kg/day, sc administered via infusion measured after 12 hrs post dose by LC-MS/MS analysis
Assay type: ADME, organism-based
outcome.measure: concentration at 12 h (µM)
Response body: numeric value in µM, unit text excluded.

# query: concentration at 12 h of entry `COc1cccc(C(=O)N[C@H]2C[C@@](N)(C(=O)O)[C@@H]3[C@@H](C(=O)O)[C@@H]32)c1`
3.07

----------
procedure.summary: Plasma concentration in Sprague-Dawley rat at 5 mg/kg/day, sc administered via infusion measured after 12 hrs post dose by LC-MS/MS analysis
Type: ADME, organism-based
outcome.measure: concentration at 12 h

Return reported concentration at 12 h; argument: `COc1cccc(C(=O)N[C@H]2C[C@@](N)(C(=O)O)[C@@H]3[C@@H](C(=O)O)[C@@H]32)c1`
1260 nM

----------
Below is a list of entries, each paired with its recorded EC50 value.
target.entity: Metabotropic glutamate receptor 2 (Homo sapiens)
procedure.summary: Agonist activity at human mGlu2 receptor expressed in HEK cells assessed as inhibition of forskolin-stimulated cAMP formation after 20 mins by HTRF assay
Type: functional, cell-based
The reply should be a number in nM, with the unit left off.

* N[C@@]1(C(=O)O)C[C@H](NC(=O)c2ccc(Cl)cc2)[C@H]2[C@H](C(=O)O)[C@H]21 | 6.97
* N[C@@]1(C(=O)O)C[C@H](NC(=O)c2ccccc2O)[C@H]2[C@H](C(=O)O)[C@H]21 | 7.44
* N[C@@]1(C(=O)O)C[C@H](NC(=O)c2cccc(O)c2)[C@H]2[C@H](C(=O)O)[C@H]21 | 3.77
* COc1ccc(C(=O)N[C@H]2C[C@@](N)(C(=O)O)[C@@H]3[C@@H](C(=O)O)[C@@H]32)cc1 | 16
* N[C@@]1(C(=O)O)C[C@H](NC(=O)CCc2ccccc2)[C@H]2[C@H](C(=O)O)[C@H]21 | 893

Item `N[C@@]1(C(=O)O)C[C@H](NC(=O)c2ccccc2Cl)[C@H]2[C@H](C(=O)O)[C@H]21` has what recorded EC50?
42.5

Bench note: what EC50 did `N[C@@]1(C(=O)O)C[C@H](NC(=O)C2CCCCC2)[C@H]2[C@H](C(=O)O)[C@H]21` show?
3390

Which EC50 reading was recorded for the compound `N[C@@]1(C(=O)O)C[C@H](NC(=O)c2ccccc2)[C@H]2[C@H](C(=O)O)[C@H]21` ?
19.8

----------
procedure.summary: Plasma concentration in Sprague-Dawley rat at 15 mg/kg/day, sc administered via infusion measured after 72 hrs post dose by LC-MS/MS analysis
Type: ADME, organism-based
outcome.measure: concentration at 72 h (µM)
Could you give me the number in µM? Just the number is fine.

Requested field: concentration at 72 h. Item: `COc1cccc(C(=O)N[C@H]2C[C@@](N)(C(=O)O)[C@@H]3[C@@H](C(=O)O)[C@@H]32)c1`
3.21

----------
target.entity: Metabotropic glutamate receptor 2 (Homo sapiens, UniProt Q14416)
Sequence (Q14416 whole entry): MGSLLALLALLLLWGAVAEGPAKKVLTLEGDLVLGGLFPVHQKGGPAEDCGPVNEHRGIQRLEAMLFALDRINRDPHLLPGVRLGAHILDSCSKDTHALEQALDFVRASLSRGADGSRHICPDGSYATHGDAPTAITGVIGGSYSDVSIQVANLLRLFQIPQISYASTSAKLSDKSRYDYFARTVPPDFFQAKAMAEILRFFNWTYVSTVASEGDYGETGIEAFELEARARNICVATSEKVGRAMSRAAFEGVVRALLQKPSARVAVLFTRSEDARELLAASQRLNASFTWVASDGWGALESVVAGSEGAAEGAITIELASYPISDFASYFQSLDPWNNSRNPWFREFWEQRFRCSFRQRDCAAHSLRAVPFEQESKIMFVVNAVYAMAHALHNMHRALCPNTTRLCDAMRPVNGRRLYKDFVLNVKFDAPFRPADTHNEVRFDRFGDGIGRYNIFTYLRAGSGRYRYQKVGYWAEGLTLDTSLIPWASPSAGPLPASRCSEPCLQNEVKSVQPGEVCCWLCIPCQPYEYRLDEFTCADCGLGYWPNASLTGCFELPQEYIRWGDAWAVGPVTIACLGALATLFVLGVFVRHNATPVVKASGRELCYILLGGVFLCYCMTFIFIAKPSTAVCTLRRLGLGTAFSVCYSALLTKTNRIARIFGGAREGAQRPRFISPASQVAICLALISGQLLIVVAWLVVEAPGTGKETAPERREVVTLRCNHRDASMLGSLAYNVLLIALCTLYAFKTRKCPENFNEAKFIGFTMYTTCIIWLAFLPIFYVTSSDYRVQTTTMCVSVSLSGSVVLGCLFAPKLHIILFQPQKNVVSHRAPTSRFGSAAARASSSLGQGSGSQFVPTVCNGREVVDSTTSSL
procedure.summary: Antagonist activity at human mGlu2 receptor expressed in HEK cells assessed as reversal of DCG-4 inhibited forskolin-stimulated cAMP formation after 20 mins by HTRF assay
outcome.measure: pIC50
// returns pIC50 (minus log10 of molar concentration), number only

Record `N[C@@]1(C(=O)O)C[C@H](NC(=O)CCc2ccccc2)[C@H]2[C@H](C(=O)O)[C@H]21` : what is its pIC50 with Metabotropic glutamate receptor 2 (Homo sapiens, UniProt Q14416)?
5.26

Recall the recorded pIC50 for `N[C@@]1(C(=O)O)C[C@H](NC(=O)C2CCCCC2)[C@H]2[C@H](C(=O)O)[C@H]21` with Metabotropic glutamate receptor 2 (Homo sapiens, UniProt Q14416) and state it.
4.92

----------
target.entity: Metabotropic glutamate receptor 3 (Homo sapiens)
Sequence (Q14832 whole entry): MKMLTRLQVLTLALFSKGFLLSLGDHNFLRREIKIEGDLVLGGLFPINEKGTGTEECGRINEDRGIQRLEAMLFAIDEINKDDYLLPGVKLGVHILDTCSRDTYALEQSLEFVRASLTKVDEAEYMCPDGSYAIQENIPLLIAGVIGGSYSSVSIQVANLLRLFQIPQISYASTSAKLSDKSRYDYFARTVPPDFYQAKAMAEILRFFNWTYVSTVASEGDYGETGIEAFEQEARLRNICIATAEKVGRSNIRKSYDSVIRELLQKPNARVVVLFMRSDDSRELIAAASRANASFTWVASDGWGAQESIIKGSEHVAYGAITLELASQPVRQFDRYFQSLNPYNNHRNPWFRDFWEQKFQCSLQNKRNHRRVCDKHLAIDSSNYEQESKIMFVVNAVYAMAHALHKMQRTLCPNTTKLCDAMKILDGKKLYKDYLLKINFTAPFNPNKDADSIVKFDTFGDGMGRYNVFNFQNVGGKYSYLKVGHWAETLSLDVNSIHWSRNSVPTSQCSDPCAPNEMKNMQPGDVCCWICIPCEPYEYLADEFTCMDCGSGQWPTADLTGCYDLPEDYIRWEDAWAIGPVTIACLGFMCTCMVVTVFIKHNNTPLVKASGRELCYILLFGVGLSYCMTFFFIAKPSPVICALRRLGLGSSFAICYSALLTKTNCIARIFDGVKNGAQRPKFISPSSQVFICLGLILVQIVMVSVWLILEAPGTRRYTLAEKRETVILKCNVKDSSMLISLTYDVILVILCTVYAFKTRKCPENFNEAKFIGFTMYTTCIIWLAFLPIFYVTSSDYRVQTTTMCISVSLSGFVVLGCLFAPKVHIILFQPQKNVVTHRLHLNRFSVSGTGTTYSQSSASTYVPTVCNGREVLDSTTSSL
Here, each record is paired with measured log10(Ki) data.
Each number you see is log10 of Ki, and the unit inside the log is nM.

Record excerpt, results attached:
- N[C@@]1(C(=O)O)C[C@H](NC(=O)c2cccc(Cl)c2)[C@H]2[C@H](C(=O)O)[C@H]21: -0.33
- N[C@H]1C[C@@](N)(C(=O)O)[C@@H]2[C@@H](C(=O)O)[C@@H]21: 2.45
- N[C@@]1(C(=O)O)C[C@H](NC(=O)c2ccccc2)[C@H]2[C@H](C(=O)O)[C@H]21: 0.83
- N[C@@]1(C(=O)O)C[C@H](NC(=O)c2ccccc2F)[C@H]2[C@H](C(=O)O)[C@H]21: 0.76
- N[C@@]1(C(=O)O)C[C@H](NC(=O)CCc2ccccc2)[C@H]2[C@H](C(=O)O)[C@H]21: 2.45
- CC(=O)N[C@H]1C[C@@](N)(C(=O)O)[C@@H]2[C@@H](C(=O)O)[C@@H]21: 2.25
- N[C@@]1(C(=O)O)C[C@H](NC(=O)c2ccc(F)cc2)[C@H]2[C@H](C(=O)O)[C@H]21: 0.64

Form field: log10(Ki) recorded for `N[C@@]1(C(=O)O)C[C@H](NCc2ccccc2)[C@H]2[C@H](C(=O)O)[C@H]21` with Metabotropic glutamate receptor 3 (Homo sapiens) (enter value)
3.03

----------
target.entity: Metabotropic glutamate receptor 6 (Homo sapiens)
Sequence (O15303 whole entry): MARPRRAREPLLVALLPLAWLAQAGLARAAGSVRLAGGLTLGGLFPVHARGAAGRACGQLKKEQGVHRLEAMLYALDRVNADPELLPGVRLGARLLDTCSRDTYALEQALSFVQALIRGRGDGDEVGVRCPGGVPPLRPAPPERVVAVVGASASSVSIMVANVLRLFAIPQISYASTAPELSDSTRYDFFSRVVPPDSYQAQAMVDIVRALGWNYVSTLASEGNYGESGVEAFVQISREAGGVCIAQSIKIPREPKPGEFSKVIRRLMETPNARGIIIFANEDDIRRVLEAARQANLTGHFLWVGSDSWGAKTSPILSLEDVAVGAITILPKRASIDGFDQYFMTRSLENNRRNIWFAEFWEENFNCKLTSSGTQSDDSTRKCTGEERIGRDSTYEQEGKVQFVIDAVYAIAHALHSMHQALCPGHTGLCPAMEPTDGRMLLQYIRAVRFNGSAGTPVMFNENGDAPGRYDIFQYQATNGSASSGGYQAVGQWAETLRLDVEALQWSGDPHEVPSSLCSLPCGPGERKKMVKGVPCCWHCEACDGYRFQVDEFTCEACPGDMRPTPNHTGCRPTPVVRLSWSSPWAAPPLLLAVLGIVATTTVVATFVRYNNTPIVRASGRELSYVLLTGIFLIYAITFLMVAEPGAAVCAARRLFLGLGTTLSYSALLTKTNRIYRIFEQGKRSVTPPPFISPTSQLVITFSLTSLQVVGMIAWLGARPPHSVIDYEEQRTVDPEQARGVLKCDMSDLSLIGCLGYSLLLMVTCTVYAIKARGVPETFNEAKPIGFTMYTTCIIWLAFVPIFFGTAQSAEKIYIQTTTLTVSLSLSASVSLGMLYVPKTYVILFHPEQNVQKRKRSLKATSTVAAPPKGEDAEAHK
procedure.summary: Agonist activity at human mGlu6 receptor expressed in hamster AV12 cells co-expressing rat EAAT1 assessed as inhibition of forskolin-stimulated cAMP formation after 20 mins by HTRF assay
outcome.measure: EC50
Kindly format the answer as number then unit.

What value of EC50 has been reported for the following compound? `COc1cccc(C(=O)N[C@H]2C[C@@](N)(C(=O)O)[C@@H]3[C@@H](C(=O)O)[C@@H]32)c1`
1950 nM

----------
procedure.summary: Plasma concentration in Sprague-Dawley rat at 3 mg/kg, sc administered as single dose measured after 1 hr post dose by LC-MS/MS analysis
Assay type: ADME, organism-based
outcome.measure: concentration at 1 h
Mention the unit after the number when you answer.

Name the reported concentration at 1 h value associated with the molecule `COc1cccc(C(=O)N[C@H]2C[C@@](N)(C(=O)O)[C@@H]3[C@@H](C(=O)O)[C@@H]32)c1`
7.18 µM

----------
procedure.summary: Plasma concentration in Sprague-Dawley rat at 1 mg/kg, sc administered as single dose measured after 1 hr post dose by LC-MS/MS analysis
Type: ADME, organism-based
outcome.measure: concentration at 1 h

Entry `COc1cccc(C(=O)N[C@H]2C[C@@](N)(C(=O)O)[C@@H]3[C@@H](C(=O)O)[C@@H]32)c1` has what concentration at 1 h?
1510 to 1580 nM

----------
procedure.summary: Plasma concentration in Sprague-Dawley rat at 1.5 mg/kg/day, sc administered via infusion measured after 12 hrs post dose by LC-MS/MS analysis
Type: ADME, organism-based
outcome.measure: concentration at 12 h (nM)
Lab book: enter the figure in nM, no units written.

Fill in: concentration at 12 h of `COc1cccc(C(=O)N[C@H]2C[C@@](N)(C(=O)O)[C@@H]3[C@@H](C(=O)O)[C@@H]32)c1` is ___
389

----------
target.entity: CYP2D6 (Homo sapiens, UniProt P10635)
Sequence (P10635 whole entry): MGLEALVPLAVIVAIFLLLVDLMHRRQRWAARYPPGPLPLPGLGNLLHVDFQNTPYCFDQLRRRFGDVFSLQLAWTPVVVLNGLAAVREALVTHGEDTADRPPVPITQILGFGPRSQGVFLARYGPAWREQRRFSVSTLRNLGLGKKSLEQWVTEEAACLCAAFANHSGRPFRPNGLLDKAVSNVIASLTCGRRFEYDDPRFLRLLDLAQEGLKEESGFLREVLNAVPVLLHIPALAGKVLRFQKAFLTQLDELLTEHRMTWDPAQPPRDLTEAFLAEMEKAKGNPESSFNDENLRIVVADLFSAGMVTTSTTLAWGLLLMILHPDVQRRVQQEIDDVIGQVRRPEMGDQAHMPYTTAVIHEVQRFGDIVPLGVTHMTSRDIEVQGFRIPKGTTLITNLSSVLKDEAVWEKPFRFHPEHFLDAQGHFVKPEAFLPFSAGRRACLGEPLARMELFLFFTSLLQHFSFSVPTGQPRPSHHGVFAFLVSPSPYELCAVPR
procedure.summary: Inhibition of human CYP2D6 at 10 uM
Format: ADME
outcome.measure: inhibition at 10 µM (%)
Numbers only; they are read as %.

Fill blank: measured inhibition at 10 µM of the compound `COc1cccc(C(=O)N[C@H]2C[C@@](N)(C(=O)O)[C@@H]3[C@@H](C(=O)O)[C@@H]32)c1` is ____.
0

----------
target.entity: Metabotropic glutamate receptor 2 (Homo sapiens, UniProt Q14416)
procedure.summary: Agonist activity at human mGlu2 receptor expressed in HEK cells assessed as inhibition of forskolin-stimulated cAMP formation after 20 mins by HTRF assay
Format: functional, cell-based
Reported EC50 values for a set of compounds
Form field: result (number plus unit)

Please review the entries below; each comes with its answer.
- N[C@@]1(C(=O)O)C[C@H](NC(=O)c2ccc(O)cc2)[C@H]2[C@H](C(=O)O)[C@H]21: 6.32 nM
- N[C@@]1(C(=O)O)C[C@H](NC(=O)c2cccc(Cl)c2)[C@H]2[C@H](C(=O)O)[C@H]21: 8.37 nM
- N[C@@]1(C(=O)O)C[C@H](NCc2ccccc2)[C@H]2[C@H](C(=O)O)[C@H]21: 508 nM
- N[C@@]1(C(=O)O)C[C@H](NC(=O)c2ccccc2F)[C@H]2[C@H](C(=O)O)[C@H]21: 17.1 nM
- COc1ccccc1C(=O)N[C@H]1C[C@@](N)(C(=O)O)[C@@H]2[C@@H](C(=O)O)[C@@H]21: 26.5 nM
- N[C@@]1(C(=O)O)C[C@H](NC(=O)c2cccc(F)c2)[C@H]2[C@H](C(=O)O)[C@H]21: 18.1 nM
- N[C@@]1(C(=O)O)C[C@H](NC(=O)c2ccc(F)cc2)[C@H]2[C@H](C(=O)O)[C@H]21: 19.1 nM

// moving on: another record for EC50
EC50 of `COc1cccc(C(=O)N[C@H]2C[C@@](N)(C(=O)O)[C@@H]3[C@@H](C(=O)O)[C@@H]32)c1` on Metabotropic glutamate receptor 2 (Homo sapiens, UniProt Q14416)?
47.5 nM
